The origin of these recorded values is patent WO2018095428A1.

- Measurement Target: T1, human CD47-his (Sino Biological, CAT#12283-HCCH-50) (human, UniProt Q08722 19-139, limits assumed)
- T1 construct: Bought protein used as analyte in Biacore; also called 人CD47-his; human CD47-his antigen; not shown: His tag of the bought protein
- T1 sequence (Q08722 19-139 limits assumed): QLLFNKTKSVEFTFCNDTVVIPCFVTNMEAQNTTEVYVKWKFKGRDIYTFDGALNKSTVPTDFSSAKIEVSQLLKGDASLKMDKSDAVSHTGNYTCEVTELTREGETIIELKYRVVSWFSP
- Assay Details: SPR (Biacore): antibody captured with human Fab capture kit on CM5 chip, human CD47-his flowed over
Parameter Measured: KD fold difference (against ch-055)
Number, no unit, nothing else.

Binder | KD fold difference (against ch-055)
hu055-5 (antibody, V domains shown) VH: QVQLVQSGAEVKKPGASVKVSCKASGYTFTSSYLHWVRQAPGQRLDWIGWIYPESGNTKYNERFKGRATLTADTSASTAYMELSSLRSEDTAVYYCARRGDVFFAYWGQGTTVTVSS VL: DIVMTQSPDSLAVSLGERATINCKSSQSLLTSGKQKNYLTWYQQKPGQPPKLLIYWASTRESGVPDRFSGSGSGTDFTLTISSLQAEDVAVYYCQNDYSYPLTFGQGTKLEIKR | 1.1
chimeric antibody ch-055 (antibody, V domains shown) VH: QVLLQQSGPELVQPGASVKISCKASGYSFTSSYLHWVKQRPGQGLDWIGWIYPESGNTKYNERFKGKATLTADTSSSTAYMQLSSLTSEDSAVYYCSRRGDVFFAYWGQGTTLTVSS VL: DIVMTQSPSYLTVTAGEKVTMSCKSSQSLLTSGKQKNYLTWYQQKPGQPPKLLIYWASTRESGVPERFRGSGSGTDFTLTISSVQAEDLAVYYCQNDYSYPLTFGAGTKLELN | 1
hu055-1 (antibody, V domains shown) VH: QVQLVQSGAEVKKPGASVKVSCKASGYTFTSSYLHWVRQAPGQRLEWMGWIYPESGNTKYNERFKGRVTITRDTSASTAYMELSSLRSEDTAVYYCARRGDVFFAYWGQGTTVTVSS VL: DIVMTQSPDSLAVSLGERATINCKSSQSLLTSGKQKNYLTWYQQKPGQPPKLLIYWASTRESGVPDRFSGSGSGTDFTLTISSLQAEDVAVYYCQNDYSYPLTFGQGTKLEIK | 3.5

Proceed to the following item.
Q: Data request, read-out KD fold difference (against ch-055), for hu055-8 (antibody, V domains shown) VH: QVQLVQSGAEVKKPGASVKVSCKASGYTFTSSYLHWVRQAPGQRLEWMGWIYPESGNTKYNERFKGRVTITRDTSASTAYMELSSLRSEDTAVYYCARRGDVFFAYWGQGTTVTVSS VL: DIVMTQSPDSLAVSLGERATINCKSSQSLLTSGKQKNYLTWYQQKPGQPPKLLIYWASTRESGVPERFSGSGSGTDFTLTISSLQAEDVAVYYCQNDYSYPLTFGQGTKLEIK
Result: 3.7
